Documented B-score across a set of molecules
system.under.test: Voltage-dependent T-type calcium channel subunit alpha-1H (Homo sapiens) (UniProt O95180)
Sequence (O95180 whole entry, looked up): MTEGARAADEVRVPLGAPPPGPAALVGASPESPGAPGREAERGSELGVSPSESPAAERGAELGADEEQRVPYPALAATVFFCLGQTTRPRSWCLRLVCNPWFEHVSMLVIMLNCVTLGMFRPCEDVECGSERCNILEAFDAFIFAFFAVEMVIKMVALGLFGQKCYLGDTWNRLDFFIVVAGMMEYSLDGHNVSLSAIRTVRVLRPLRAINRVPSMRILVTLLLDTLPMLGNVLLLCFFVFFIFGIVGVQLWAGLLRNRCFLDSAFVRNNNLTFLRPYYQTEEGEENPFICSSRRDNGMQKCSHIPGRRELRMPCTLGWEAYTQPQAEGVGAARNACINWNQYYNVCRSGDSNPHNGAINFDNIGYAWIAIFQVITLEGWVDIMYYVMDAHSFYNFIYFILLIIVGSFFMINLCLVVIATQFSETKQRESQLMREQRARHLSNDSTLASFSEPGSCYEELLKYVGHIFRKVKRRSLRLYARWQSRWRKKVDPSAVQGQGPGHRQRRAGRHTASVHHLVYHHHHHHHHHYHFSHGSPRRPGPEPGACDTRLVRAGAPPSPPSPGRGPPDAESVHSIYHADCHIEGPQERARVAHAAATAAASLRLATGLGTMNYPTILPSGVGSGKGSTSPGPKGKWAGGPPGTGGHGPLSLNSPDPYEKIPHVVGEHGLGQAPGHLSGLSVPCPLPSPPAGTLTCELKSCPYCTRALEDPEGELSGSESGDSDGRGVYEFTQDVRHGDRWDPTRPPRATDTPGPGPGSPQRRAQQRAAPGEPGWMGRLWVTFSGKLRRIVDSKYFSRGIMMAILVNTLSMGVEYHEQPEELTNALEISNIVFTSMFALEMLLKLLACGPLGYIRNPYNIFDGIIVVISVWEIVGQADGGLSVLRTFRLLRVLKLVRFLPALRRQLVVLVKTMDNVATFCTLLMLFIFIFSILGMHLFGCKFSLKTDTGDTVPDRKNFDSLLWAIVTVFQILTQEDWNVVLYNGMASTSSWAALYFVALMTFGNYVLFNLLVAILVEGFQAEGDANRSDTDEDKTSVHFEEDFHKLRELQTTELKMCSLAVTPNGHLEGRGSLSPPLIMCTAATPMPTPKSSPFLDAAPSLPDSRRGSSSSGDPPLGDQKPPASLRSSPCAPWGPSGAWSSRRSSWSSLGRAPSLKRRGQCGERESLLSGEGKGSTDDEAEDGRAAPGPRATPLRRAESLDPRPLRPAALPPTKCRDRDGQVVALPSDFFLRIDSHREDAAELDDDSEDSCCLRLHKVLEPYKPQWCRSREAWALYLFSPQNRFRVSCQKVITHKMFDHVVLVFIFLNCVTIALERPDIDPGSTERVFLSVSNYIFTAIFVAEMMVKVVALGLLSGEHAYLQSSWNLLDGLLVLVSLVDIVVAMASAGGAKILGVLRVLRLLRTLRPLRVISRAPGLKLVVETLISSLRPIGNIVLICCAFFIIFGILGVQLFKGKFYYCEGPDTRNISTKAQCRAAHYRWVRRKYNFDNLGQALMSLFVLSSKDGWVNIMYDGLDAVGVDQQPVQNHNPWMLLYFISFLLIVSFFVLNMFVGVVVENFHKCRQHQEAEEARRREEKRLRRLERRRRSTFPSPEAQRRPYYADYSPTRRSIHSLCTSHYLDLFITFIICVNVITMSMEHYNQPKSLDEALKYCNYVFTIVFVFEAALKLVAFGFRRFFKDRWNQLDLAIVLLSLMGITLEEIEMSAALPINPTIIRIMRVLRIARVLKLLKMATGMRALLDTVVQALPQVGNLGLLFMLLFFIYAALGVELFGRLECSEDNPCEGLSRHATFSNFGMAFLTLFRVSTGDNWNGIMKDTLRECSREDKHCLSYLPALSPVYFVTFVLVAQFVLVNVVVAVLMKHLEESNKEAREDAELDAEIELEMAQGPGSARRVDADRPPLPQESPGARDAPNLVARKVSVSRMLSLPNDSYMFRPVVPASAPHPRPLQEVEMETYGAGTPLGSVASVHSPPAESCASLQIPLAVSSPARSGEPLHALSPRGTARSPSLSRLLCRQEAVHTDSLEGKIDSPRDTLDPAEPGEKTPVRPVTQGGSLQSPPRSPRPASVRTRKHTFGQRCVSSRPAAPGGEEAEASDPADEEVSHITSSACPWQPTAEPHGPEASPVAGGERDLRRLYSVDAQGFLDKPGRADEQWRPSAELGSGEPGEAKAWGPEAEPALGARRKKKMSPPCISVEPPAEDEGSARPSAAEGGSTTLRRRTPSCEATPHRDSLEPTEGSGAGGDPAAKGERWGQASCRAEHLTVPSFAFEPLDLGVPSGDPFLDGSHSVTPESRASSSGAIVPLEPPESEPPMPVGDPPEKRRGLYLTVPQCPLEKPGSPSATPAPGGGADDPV
protocol.text: Cav3.2 calcium influx blockers – cell-based, Fluo-4 calcium fluorescence, FDSS, MLSMR library, primary screen (AID 449739)
settings: Cav3.2-expressing cells, at 10 µM, stronger effect = lower value
The campaign covered roughly 100,000 compounds. About 4,200 (4.2%) were called active. The list comes from a sample in which actives are over-represented; it also holds close analogues and randomly drawn compounds.

| molecule | B-score |
| --- | --- |
| Cc1noc(C)c1S(=O)(=O)N(CC(=O)Nc1ccc2c(c1)OCCO2)c1ccc(C(C)C)cc1 | -2.62 |
| NS(=O)(=O)c1ccc(Nc2nc(-c3ccccc3)cs2)cc1 | 0.0269 |
| CCOc1ccc(N(CC(=O)NCc2ccc(OC)cc2)S(=O)(=O)c2c(C)noc2C)cc1 | 0.15 |
| CCn1c(O)c(N=NC2=NC(=O)CS2)c2cc(C)ccc21 | -4.99 |
| CCOC(=O)c1cccc(NC(=O)CN(c2ccc(C)cc2)S(=O)(=O)c2c(C)noc2C)c1 | -6.06 |
| Cc1ccccc1CSCCNC(=O)c1ccc(N(C)S(=O)(=O)c2ccccc2)cc1 | -5.82 |
| C[C@H]1CC[C@]2(O[C@@H](CCO)C[C@@H](O)[C@@H]2O)O1 | -0.0046 |
| CCOc1ccc2nc(N3CCCN(C(=O)Nc4ccccc4C)CC3)c(C#N)cc2c1 | -4.45 |
| CCOc1ccc2nc(NCCNS(=O)(=O)c3ccccc3)c(C#N)cc2c1 | 0.364 |
| CCCCCCc1cc2cc(-c3nnc(-c4ccccc4)o3)c(=O)oc2cc1O | -8.89 |
| Cc1ccc(-c2csc(NC(=O)c3cccs3)n2)cc1 | -1.5 |
| O=C(Nc1nnc(CCOCCOCCc2nnc(NC(=O)c3ccco3)s2)s1)c1ccco1 | 0.766 |
| COc1ccc(NCc2nnc(SCc3ccccc3)n2-c2ccc(OC)cc2)cc1 | -3.07 |
| COc1cnc(SCc2ccc(Cl)c(Cl)c2)nc1Cl | -1.35 |
| CCOC(=O)CSc1ncc(-c2cccc(Cl)c2)cn1 | 0.28 |
| CC(Oc1ccc2ccccc2c1)C(=O)NNC(=S)NC(=O)c1ccco1 (stereo unspecified) | -7.25 |
| CCOc1ccc(N(CC(=O)OC)S(=O)(=O)c2c(C)noc2C)cc1 | -5.9 |
| CCOC(=O)C1CCCN(C(=O)CN(c2ccc(OC)cc2)S(=O)(=O)c2c(C)noc2C)C1 (stereo unspecified) | 0.012 |
| Cc1ccc(C(=O)NCCNS(=O)(=O)c2ccccc2)cc1 | 0.965 |
| CCO[C@H]1OC(C(=O)N2CCN(Cc3ccccc3)CC2)=C[C@@H](c2cn(C(C)=O)c3ccccc23)[C@@H]1CCCO | -1.16 |
| O=C(Nc1ccc(Oc2ccccc2)cc1)c1ccco1 | -0.246 |
